Tested on: Mycobacterium tuberculosis
Assay: Antitubercular activity against Mycobacterium tuberculosis H37Rv ATCC 27294 cultured in 7H12 media assessed as reduction in bacterial growth incubated for 7 days by resazurin dye fluorescence based assay
Assay type: functional
Settings: H37Rv ATCC 27294, 168 h, time 7 day
Field: label. Allowed values: TRUE (MIC < 0.03 µM) or FALSE (MIC >= 0.03 µM).

1) COc1ccc(CNC(=O)c2nc3cc(C(F)(F)F)cc([N+](=O)[O-])c3s2)cc1 :: FALSE
2) NC(=O)c1sc2c([N+](=O)[O-])cc(C(F)(F)F)cc2[n+]1[O-] :: FALSE
3) C[C@H]1COC2(CCN(C(=O)c3sc4c([N+](=O)[O-])cc(C(F)(F)F)cc4[n+]3[O-])CC2)O1 :: FALSE
4) COc1ccc(CNc2ccc([N+](=O)[O-])cc2C#N)cc1 :: FALSE
5) N#Cc1cc([N+](=O)[O-])ccc1NC1CC1 :: FALSE

State whether 0.03 µM exceeds MIC recorded for "C[C@H]1COC2(CCN(c3nc(=O)c4cc(C(F)(F)F)cc([N+](=O)[O-])c4s3)CC2)O1" .
TRUE

State whether 0.03 µM exceeds MIC recorded for "CC(C)(C)OC(=O)N1CCC(Oc2ccc(Nc3ccc([N+](=O)[O-])cc3C#N)cc2)CC1" .
FALSE

State whether 0.03 µM exceeds MIC recorded for "O=C(NCc1ccc(N2CCC(c3ccc(OC(F)(F)F)cc3)CC2)cc1)c1sc2c([N+](=O)[O-])cc(C(F)(F)F)cc2[n+]1[O-]" .
TRUE
